# assayNotes: in vivo
# experimentalParameters: male, Sprague-Dawley, rat, plasma, po, 10 mg/kg
measuredProperty: AUC(0-t) (ng·h/mL)
Numbers only here, please. The scale is ng·h/mL.

Query "Cc1cc(/C=C/C#N)cc(C)c1Oc1ccnc(Nc2ccc(N3CCN(S(C)(=O)=O)CC3)c(C#N)c2)n1" yields AUC(0-t) of 45.1

###

# assayTarget: CYP3A4 (Homo sapiens)
# Sequence (P08684 whole entry): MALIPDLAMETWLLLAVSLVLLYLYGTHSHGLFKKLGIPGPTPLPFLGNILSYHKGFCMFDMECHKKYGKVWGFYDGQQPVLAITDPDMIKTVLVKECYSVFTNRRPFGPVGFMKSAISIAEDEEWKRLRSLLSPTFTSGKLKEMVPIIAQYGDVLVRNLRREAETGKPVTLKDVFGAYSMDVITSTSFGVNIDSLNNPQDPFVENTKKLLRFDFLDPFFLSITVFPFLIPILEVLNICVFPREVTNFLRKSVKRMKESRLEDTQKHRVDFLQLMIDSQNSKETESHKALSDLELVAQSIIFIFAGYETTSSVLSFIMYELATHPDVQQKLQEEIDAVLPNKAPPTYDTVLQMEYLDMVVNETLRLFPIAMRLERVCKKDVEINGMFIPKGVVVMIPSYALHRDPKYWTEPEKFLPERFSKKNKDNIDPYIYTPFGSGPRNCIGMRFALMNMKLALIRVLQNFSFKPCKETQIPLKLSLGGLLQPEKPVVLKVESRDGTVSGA
# assayNotes: in vitro
# experimentalParameters: microsomes
measuredProperty: IC50 at 10 min

In plain terms, "Cc1cc(C#N)cc(C)c1Oc1nc(Nc2ccc(C#N)cc2)nc(N)c1Br" has a documented IC50 at 10 min of > 10 µM

The measured values listed here are drawn from paper PMC10148624.
